- Tested on: S1507-2
- Method Description: % inhibition of CellTiter-Glo viability at highest tested concentration (72 h), relative to DMSO and benzethonium chloride controls; higher = more inhibition
Returns one of TRUE or FALSE; TRUE when % inhibition is >= 50%.

Req: Quick check: does Nc1nc(NC2CC2)cc(-c2cccc(Cl)c2Cl)n1 [TH588] (max concentration tested 25000 nM) have % inhibition greater than or equal to 50%?
Resp: TRUE

Req: Item: CCN(CC)CCOc1ccc(/C(=C(/Cl)c2ccccc2)c2ccccc2)cc1 [Clomifene] (max concentration tested 10000 nM)
Resp: TRUE

Req: CC1=C2C[C@H]3[C@@H](CC=C4C[C@@H](O)CC[C@@]43C)[C@@H]2CC[C@]12O[C@@H]1C[C@H](C)CN[C@H]1[C@H]2C [Cyclopamine] (max concentration tested 10000 nM) , same question.
Resp: FALSE

Req: And what about the compound C[C@]12CC[C@H](O)CC1=CC[C@@H]1[C@@H]2CC[C@]2(C)C(c3cccnc3)=CC[C@@H]12 [Abiraterone] (max concentration tested 5000 nM) ?
Resp: FALSE

Req: Now the compound CC1=NN(c2ccc(C(=O)O)cc2)C(=O)C1=Cc1ccc(-c2cc(C)c(C)cc2[N+](=O)[O-])o1 [C646] (max concentration tested 25000 nM)
Resp: FALSE

Req: Entry to check: OC[C@H]1O[C@@H](n2cnc3c2N=CNC[C@H]3O)C[C@@H]1O [Pentostatin] (max concentration tested 10000 nM)
Resp: FALSE

Req: Next compound up: CN(C)/N=N/c1[nH]cnc1C(N)=O [Dacarbazine] (max concentration tested 10000 nM)
Resp: FALSE

Req: Proceed to CC1(COc2ccc3c(c2)ncn3-c2ccc3cccc(N4CCC(N)CC4)c3n2)COC1 [Crenolanib] (max concentration tested 10000 nM)
Resp: TRUE

Req: CC[C@@H]1C(=O)OC[C@@H]1Cc1cncn1C [Pilocarpine] (max concentration tested 40000 nM) ?
Resp: FALSE

Req: How about COc1nc(N)nc2c1ncn2[C@@H]1O[C@H](CO)[C@@H](O)[C@@H]1O [Nelarabine] (max concentration tested 10000 nM) ?
Resp: FALSE

Req: Try CCn1c(-c2nonc2N)nc2cnc(Oc3cccc(NC(=O)c4ccc(OCCN5CCOCC5)cc4)c3)cc21 (max concentration tested 10000 nM) next.
Resp: FALSE

Req: Let us now turn to C#Cc1cccc(Nc2ncnc3cc(OC)c(OCCCCCCC(=O)NO)cc23)c1 [CUDC-101] (max concentration tested 10000 nM)
Resp: TRUE

Req: And then C=CCN(/C=C1/C(=O)O[C@H](COC)[C@@]2(C)C1=C(O)C(=O)C1=C2[C@H](OC(C)=O)C[C@]2(C)C(=O)CC[C@@H]12)CC=C [Sonolisib] (max concentration tested 10000 nM) , what is it?
Resp: FALSE

Req: Also check Oc1ncnc2[nH]ncc12 [Allopurinol] (max concentration tested 10000 nM)
Resp: FALSE

Req: # repeat for COC1=C2C[C@@H](C)C[C@H](OC)[C@H](O)[C@@H](C)/C=C(\C)[C@H](OC(N)=O)[C@@H](OC)/C=C\C=C(/C)C(=O)NC(=CC1=O)C2=O [Geldanamycin] (max concentration tested 10000 nM)
Resp: TRUE

Req: Likewise for CC(C)C[C@@H](C(=O)N[C@H](C(=O)OC1CCCC1)c1ccccc1)[C@H](O)C(=O)NO [Tosedostat] (max concentration tested 10000 nM) ?
Resp: FALSE

Req: What do we get for CCn1c(C(=O)N(C2CC2)C2CC2)cc2c3c(ncn3C)c(Nc3cc(C)n(C)n3)nc21 (max concentration tested 10000 nM) ?
Resp: FALSE

Req: Entry CC(O)(CS(=O)(=O)c1ccc(F)cc1)C(=O)Nc1ccc(C#N)c(C(F)(F)F)c1 (centres undefined) [Bicalutamide] (max concentration tested 10000 nM) please
Resp: FALSE

Req: Same for CCCCCOC(=O)Nc1nc(=O)n([C@@H]2O[C@H](C)[C@@H](O)[C@H]2O)cc1F [Capecitabine] (max concentration tested 10000 nM)
Resp: FALSE

Req: Next compound: CC(C)(C)c1cnc(CSc2cnc(NC(=O)C3CCNCC3)s2)o1 [SNS-032] (max concentration tested 10000 nM)
Resp: TRUE

Req: Request: COCC1(CO)C(=O)C2CCN1CC2 (centres undefined) [Prima-1 Met] (max concentration tested 10000 nM)
Resp: FALSE

Req: What about O=C1NC(=O)[C@@H](c2cn3c4c(cccc24)CCC3)[C@@H]1c1c[nH]c2ccccc12 [Tivantinib] (max concentration tested 1000 nM) ?
Resp: TRUE

Req: Subsequent entry: NC(=O)Nc1cc(-c2cccc(F)c2)sc1C(=O)N[C@H]1CCCNC1 [AZD7762] (max concentration tested 1000 nM)
Resp: TRUE
